These entries and their values trace back to patent US20150315211A1.

# targetDesc: MCL-1ΔNΔC (Homo sapiens)
# experimentDescription: High-throughput competitive FP binding screen, FITC-MCL-1 SAHB/MCL-1ΔNΔC interaction
# Set-up: the C-terminal alpha-helix was deleted from each of these constructs; GST (N, cleaved yes); made in house
# conditionDetails: FITC-MCL-1 SAHB/MCL-1ΔNΔC interaction pair, competitive FP screen
Listed below: MCL-1% Bound values for each entry.
Please state the number and follow it with the unit.

Guide cases for MCL-1% Bound, answers given:
INSERT INTO measurements (molecule, outcomemeasure, valueobserved) VALUES
  ('Cc1nn2c(S)nnc2nc1O', 'MCL-1% Bound', '−65.83%'),
  ('CN1CCCN(Cc2cc(C(C)(C)C)c(O)c(C(C)(C)C)c2)CC1', 'MCL-1% Bound', '25.21%');

What value of measured MCL-1% Bound is listed for O=c1c(O)c(-c2ccc(O)c(O)c2)oc2cc(O)cc(O)c12 [Quercetin, reference compound] ?
16.69%

Lookup CCSC1=C(C#N)C(=O)NC(c2ccc(O)cc2)S1 (centres unmarked)
15.17%

Lookup O=C(/C=C/c1ccc(Br)o1)OCC(=O)c1c[nH]c2ccccc12
53.49%

Lookup CC1=C(C#N)C(=O)N(CCc2ccccc2)C(=O)/C1=C\c1ccc(-c2cccc(Cl)c2)o1
29.33%

Lookup Cn1c(S)nnc1CNc1cccc(C(F)(F)F)c1
55.09%

Lookup N#CC1=C(S)NC(=O)C(C#N)C12CCCCC2 (centres unmarked)
39.1%

* * *

# targetDesc: MCL-1ΔNΔC (Homo sapiens, UniProt Q07820)
# Sequence (Q07820 172-320 limits assumed, stated change not applied): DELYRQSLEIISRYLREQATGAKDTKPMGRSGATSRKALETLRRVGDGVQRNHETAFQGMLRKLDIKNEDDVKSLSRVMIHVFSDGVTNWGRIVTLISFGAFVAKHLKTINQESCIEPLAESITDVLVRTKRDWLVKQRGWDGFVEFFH
# experimentDescription: High-throughput competitive FP binding screen, FITC-MCL-1 SAHB/MCL-1ΔNΔC interaction
# Design: the C-terminal alpha-helix was deleted from each of these constructs; GST (N, cleaved yes); made in house
# conditionDetails: FITC-MCL-1 SAHB/MCL-1ΔNΔC interaction pair, competitive FP screen
Listed below: MCL-1% Bound values for each entry.
Provide the reading as a plain figure in %.

INSERT INTO results (molecule, outcomemeasure, valueobserved) VALUES
  ('COc1ccc(C2=CC(=O)C=CC2=O)cc1', 'MCL-1% Bound', 35.4),
  ('CCCN1C(=O)C(C#N)=C(C)/C(=C\c2ccc(-c3ccc(Br)cc3)o2)C1=O', 'MCL-1% Bound', 20.59),
  ('Oc1cccnc1NC(c1ccc(F)cc1)c1ccc2cccnc2c1O (centres unmarked)', 'MCL-1% Bound', 42.49),
  ('C/C(=N\OCc1ccc(C(=O)N2CCCCC2)o1)c1cccc(C(F)(F)F)c1', 'MCL-1% Bound', 55.48),
  ('O=C(/C=C/c1ccco1)Nc1cccc(-c2nc3ccccc3o2)c1', 'MCL-1% Bound', 66.09);

What value of measured MCL-1% Bound is listed for O=c1c(O)c(-c2cc(O)c(O)c(O)c2)oc2cc(O)cc(O)c12 [drawing 14] ?
34.13

Lookup Oc1c(Cl)cc(Cl)cc1Sc1cc(Cl)cc(Cl)c1Cl
27.2

Lookup CC1=CC(=O)C(CCCC2=CC(=O)C=CC2=O)=CC1=O
44.41

* * *

# Tested on: MCL-1ΔNΔC
# experimentDescription: High-throughput competitive FP binding screen, FITC-MCL-1 SAHB/MCL-1ΔNΔC interaction
# conditionDetails: selectivity for MCL-1ΔNΔC over BCL-XLΔC targeting (BCL-XL % Bound minus MCL-1 % Bound)
Listed below: Spec Values values for each entry.
The reply should be a number, written without any unit.

Guide cases for Spec Values, answers given:
INSERT INTO measurements (compound, valueobserved) VALUES
  ('CCOc1cccc(CNc2ccc(N3CCCC3)cc2)c1', 47.31),
  ('Cc1ccnc(NC(c2ccco2)c2c(C)[nH]c3ccccc23)c1 (stereo not drawn)', 45.19),
  ('Cc1ccc(NC(=O)COc2ncnc3c2cnn3-c2ccccc2)cc1', 83.71),
  ('O=C1C=Cc2ccc3c4c(ccc1c24)C=CC3=O', 64.7),
  ('O=C(O)C1Nc2c(I)cccc2C2C=CCC12 (stereo not drawn)', 64.16);

What value of measured Spec Values is listed for O=c1oc2ccccc2c2oc3cc(O)c(O)cc3c12 ?
72.31

Lookup COc1cc(C(c2nnnn2C2CCCCC2)N2CCc3ccccc3C2)ccc1O (stereo not drawn)
48.33

Lookup O=c1oc2c(O)c(O)cc3c(=O)oc4c(O)c(O)cc1c4c23 [drawing 20]
89.32

Lookup CCCCC(=O)Cc1ccco1
62.08

Lookup COC(=O)c1cc(OC(=O)c2ccccc2Br)n(C)n1
72.92

Lookup Cc1cccc(NC(=O)CSc2nncc(=O)[nH]2)c1
55

Lookup CNc1sc(C(=O)c2cccs2)c(N)c1-c1nc2ccccc2s1
48.22
